Values were extracted from the supplement of paper PMC4709259.

test system: Jurkat; assay: mean cell size (FSC-A) relative to DMSO control (fraction of control); higher = larger cells; conditions: 48 h
Where a name gives a salt, the structure may show the parent alone.
Measured Attribute: mean cell size
Please give the numeric answer without any surrounding text.

Some solved entries appear below for comparison.
C[C@@H]1O[C@@H]1P(=O)(O)O [Fosfomycin Calcium] (concentration: 25 µM)	0.916
CC(=O)Oc1ccccc1C(=O)Nc1ncc([N+](=O)[O-])s1 [Nitazoxanide] (concentration: 2.5 µM)	0.933
N[C@@H](CC(=O)N1CCn2c(nnc2C(F)(F)F)C1)Cc1cc(F)c(F)cc1F [Sitagliptin Phosphate] (concentration: 25 µM)	0.999
O=C1c2cccc3c2[C@H](CCC3)CN1[C@@H]1CN2CCC1CC2 [Palonosetron·HCl] (concentration: 25 µM)	1.07
CSc1ccc2c(c1)N(CCC1CCCCN1C)c1ccccc1S2 (configuration not stated) [Thioridazine·HCl] (concentration: 2.5 µM)	1.08

Input: Requested field: mean cell size. Item: O=C(O)c1cc(=O)c2c(OCC(O)COc3cccc4oc(C(=O)O)cc(=O)c34)cccc2o1 [Cromolyn·Na (Disodium Cromoglycate)] (concentration: 25 µM)
Output: 0.923

Input: What would you report for CN[C@H](CC(C)C)C(=O)N[C@H]1C(=O)N[C@@H](CC(N)=O)C(=O)N[C@H]2C(=O)N[C@H]3C(=O)N[C@H](C(=O)N[C@H](C(=O)O)c4cc(O)cc(O)c4-c4cc3ccc4O)[C@H](O)c3ccc(c(Cl)c3)Oc3cc2cc(c3O[C@@H]2O[C@H](CO)[C@@H](O)[C@H](O)[C@H]2O[C@H]2C[C@](C)(N)[C@H](O)[C@H](C)O2)Oc2ccc(cc2Cl)[C@H]1O [Vancomycin·HCl] (concentration: 25 µM) ?
Output: 1.02

Input: What would you report for NCC[C@H](O)C(=O)N[C@@H]1C[C@H](N)[C@@H](O[C@H]2O[C@H](CN)[C@@H](O)[C@H](O)[C@H]2O)[C@H](O)[C@H]1O[C@H]1O[C@H](CO)[C@@H](O)[C@H](N)[C@H]1O [Amikacin Disulfate] (concentration: 25 µM) ?
Output: 0.994

Input: What would you report for C[C@]12CC[C@@H]3c4ccc(O)cc4CC[C@H]3[C@@H]1CCC2=O [Estrone] (concentration: 25 µM) ?
Output: 0.963

Input: What would you report for CCN(CC)CCOC(=O)C1(C2CCCCC2)CCCCC1 [Dicyclomine·HCl] (concentration: 25 µM) ?
Output: 0.922

Input: What would you report for NNc1nncc2ccccc12 [Hydralazine·HCl] (concentration: 25 µM) ?
Output: 0.98

Input: What would you report for CC(=O)NS(=O)(=O)c1ccc(N)cc1 [Sulfacetamide·Na] (concentration: 25 µM) ?
Output: 0.951

---

Entries annotated with measured cell count
tested on: Jurkat; experiment: cell count relative to DMSO control (fraction of control); higher = more cells (less growth inhibition); details: 48 h
Where a name gives a salt, the structure may show the parent alone.
Please give the numeric answer without any surrounding text.

Some solved entries appear below for comparison.
Cc1cc(C)cc(OCC2CNC(=O)O2)c1 (configuration not stated) [Metaxalone] (concentration: 25 µM)	0.853
CS(=O)(=O)OCCCCOS(C)(=O)=O [Busulfan] (concentration: 25 µM)	0.343
CN(C)CCOc1ccc(/C(=C(/CCCl)c2ccccc2)c2ccccc2)cc1 [Toremifene Base] (concentration: 25 µM)	0.948
CO/N=C1\CN(c2nc3c(cc2F)c(=O)c(C(=O)O)cn3C2CC2)CC1CN (configuration not stated) [Gemifloxacin] (concentration: 25 µM)	0.591

Input: Requested field: cell count. Item: C[C@]12C=CC(=O)C=C1CC[C@@H]1[C@@H]2C(=O)C[C@@]2(C)[C@H]1CC[C@]2(O)C(=O)CO [Prednisone] (concentration: 25 µM)
Output: 0.689

Input: What would you report for O=C(O)COCCN1CCN([C@H](c2ccccc2)c2ccc(Cl)cc2)CC1 [Levocetirizine Dihydrochloride] (concentration: 25 µM) ?
Output: 0.91

Input: What would you report for Cc1[nH]c(=O)c(C#N)cc1-c1ccncc1 [Milrinone] (concentration: 25 µM) ?
Output: 0.361

---

system: Jurkat; assay: mean cell size (FSC-A) relative to DMSO control (fraction of control); higher = larger cells; conditions: 48 h
Structures can show the parent of a compound that is named as a salt.
Measured Attribute: mean cell size
Please give the numeric answer without any surrounding text.

Oc1ncnc2[nH]ncc12 [Allopurinol] (concentration: 25 µM)	0.965
O=C(O)c1cc(-c2ccc(F)cc2F)ccc1O [Diflunisal] (concentration: 25 µM)	0.989
COc1cc2nc(N(C)CCCNC(=O)C3CCCO3)nc(N)c2cc1OC (stereo not given) [Alfuzosin] (concentration: 25 µM)	0.952
O=C(C1CCCCC1)N1CC(=O)N2CCc3ccccc3C2C1 (stereo not given) [Praziquantel] (concentration: 25 µM)	0.996
CC(S)C(=O)NCC(=O)O (stereo not given) [Tiopronin] (concentration: 25 µM)	0.956

Input: Requested field: mean cell size. Item: O=C(c1ccccc1)c1ccc2n1CCC2C(=O)O (stereo not given) [Ketorolac Tromethamine] (concentration: 25 µM)
Output: 0.907

Input: What would you report for CC1(C)C[C@@H]1C(=O)N/C(=C\CCCCSC[C@H](N)C(=O)O)C(=O)O [Cilastatin·Na] (concentration: 25 µM) ?
Output: 0.942

Input: What would you report for CC(C(=O)O)c1cccc(Oc2ccccc2)c1 (stereo not given) [Fenoprofen Calcium] (concentration: 25 µM) ?
Output: 0.901

Input: What would you report for CNCCC=C1c2ccccc2CCc2ccccc21 [Nortriptyline·HCl] (concentration: 25 µM) ?
Output: 1.06

Input: What would you report for Nc1c2c(nc3ccccc13)CCCC2 [Tacrine·HCl] (concentration: 25 µM) ?
Output: 0.981

---

system: Jurkat; test: mean cell size (FSC-A) relative to DMSO control (fraction of control); higher = larger cells; details: 48 h
Counter-ions that a name gives are not always drawn.
Entries annotated with measured mean cell size
Please give the numeric answer without any surrounding text.

C[C@]12CC[C@@H]3c4ccc(O)cc4C[C@@H](CCCCCCCCC[S+]([O-])CCCC(F)(F)C(F)(F)F)[C@H]3[C@@H]1CC[C@@H]2O (stereo partly drawn) [Fulvestrant] (concentration: 25 µM)	0.942
Nc1nc2[nH]cnc2c(=S)[nH]1 [Thioguanine (6-Thioguanine)] (concentration: 25 µM)	0.935
CCCCc1nc(Cl)c(CO)n1Cc1ccc(-c2ccccc2-c2nnn[nH]2)cc1 [Losartan Potassium] (concentration: 25 µM)	0.922
CC(C)C(=O)Nc1ccc([N+](=O)[O-])c(C(F)(F)F)c1 [Flutamide] (concentration: 25 µM)	0.918
CC(=O)N(O)CCCCCNC(=O)CCC(=O)N(O)CCCCCNC(=O)CCC(=O)N(O)CCCCCN [Deferoxamine Mesylate] (concentration: 25 µM)	1.09
CC(c1cc2ccccc2s1)N(O)C(N)=O (stereo not drawn) [Zileuton] (concentration: 25 µM)	1
CN(C)[C@@H]1C(=O)C(C(N)=O)=C(O)[C@@]2(O)C(=O)C3=C(O)c4c(O)ccc(Cl)c4[C@@H](O)[C@H]3C[C@@H]12 [Demeclocycline·HCl] (concentration: 25 µM)	0.811
OCCN1C[C@H](O)[C@@H](O)[C@H](O)[C@H]1CO [Miglitol] (concentration: 25 µM)	0.994
Cc1cccc(Nc2ccccc2C(=O)O)c1C [Mefenamic Acid] (concentration: 25 µM)	0.938
C[C@H]1C[C@@H]2[C@H]([C@@H](O)C[C@@]3(C)[C@H]2CC[C@]3(O)C(=O)CO)[C@@]2(C)C=CC(=O)C=C12 [Methylprednisolone] (concentration: 25 µM)	0.908

Input: Requested field: mean cell size. Item: C#CCN[C@@H]1CCc2ccccc21 [Rasagiline Mesylate] (concentration: 25 µM)
Output: 1.03

Input: What would you report for Cc1cc(C)cc(OCC2CNC(=O)O2)c1 (stereo not drawn) [Metaxalone] (concentration: 25 µM) ?
Output: 0.998

Input: What would you report for CCOc1nc2cccc(C(=O)O)c2n1Cc1ccc(-c2ccccc2-c2nnn[nH]2)cc1 [Candesartan] (concentration: 25 µM) ?
Output: 1.01

---

tested on: Jurkat; test: mean cell size (FSC-A) relative to DMSO control (fraction of control); higher = larger cells; settings: 48 h
Counter-ions that a name gives are not always drawn.
Measured Attribute: mean cell size

Some solved entries appear below for comparison.
CCC[C@@H]1C[C@@H](C(=O)N[C@@H]([C@H]2O[C@H](SC)[C@H](O)[C@@H](O)[C@H]2O)[C@@H](C)O)N(C)C1 [Lincomycin·HCl] (concentration: 25 µM)	1.1
O=C(O)COCCN1CCN([C@H](c2ccccc2)c2ccc(Cl)cc2)CC1 [Levocetirizine Dihydrochloride] (concentration: 25 µM)	0.961

Input: Requested field: mean cell size. Item: NC[C@@H]1O[C@H](O[C@H]2[C@@H](O)[C@H](O[C@@H]3[C@@H](O)[C@H](N)C[C@H](N)[C@H]3O[C@H]3O[C@H](CN)[C@@H](O)[C@H](O)[C@H]3N)O[C@@H]2CO)[C@H](N)[C@@H](O)[C@@H]1O [Neomycin Sulfate] (concentration: 25 µM)
Output: 0.935

Input: What would you report for CN(CCOc1ccc(CC2SC(=O)NC2=O)cc1)c1ccccn1 (configuration not stated) [Rosiglitazone] (concentration: 25 µM) ?
Output: 0.996

Input: What would you report for NS(=O)(=O)c1cc(C(=O)O)c(NCc2ccco2)cc1Cl [Furosemide] (concentration: 25 µM) ?
Output: 0.932
